# Test system: L1210 leukemia ip in BDF1 mice, survival T/C
# assay_protocol: NCI In Vivo Anticancer Drug Screen. Data for tumor model L1210 Leukemia (intraperitoneal) in B6D2F1 (BDF1) mice
# condition_summary: endpoint: mean survival time; dose: 100.0 mg/kg/injection; schedule: Q04DX003 (ip); vehicle: Klucel (hydroxypropylcellulose) (HPC); higher = longer survival
Toxic doses and inconclusive results are not listed.

| compound | T/C |
| --- | --- |
| [Cl][Ge]([Cl])([c]1ccccc1)[c]1ccccc1 | 98 % of control |
| O=Cc1ccc(C=O)c(Cl)c1 | 100 % of control |
| COc1ccc(CNCCNCc2ccc(OC)cc2)cc1 | 103 % of control |
| CCOC(=O)C1CCC(NC(=O)c2ccccc2)CC1 (stereo not drawn) | 100 % of control |
| COc1ccc(S(=O)(=O)NC(=O)NCC=C(C)C)cc1 | 93 % of control |
| CCSc1nc(N)c(C#N)cc1C#N | 88 % of control |
| CCOC(=O)Nc1cc(N)c2nnn(C(c3ccccc3)c3ccccc3)c2n1 | 92 % of control |
| NC(=O)c1ccccc1C(N)=O | 100 % of control |
| Cc1ccc(NC(=S)NN)cc1C | 94 % of control |
| CCCCCCCC(O)CCCC (stereo not drawn) | 95 % of control |
| CN(C)c1cc(Br)c(C=O)cc1[N+](=O)[O-] | 102 % of control |
| O=C1OCC/C1=C/CCC/C=C1\CCOC1=O | 100 % of control |
| CCC(=O)Nc1cc(Cl)ccc1OC | 98 % of control |
